Measured melting point of individual entries

1) O=S1(=O)CCN2CCCC(c3ccc(Oc4ccc(C(F)(F)F)cc4)cc3)C2=N1 (stereo not drawn) [Example 233] : 177 to 179 °C

Param item = `CC(C)Oc1ccc(C2=CC=CN3CCS(=O)(=O)N=C23)cc1Cl` ; retrieve measured melting point. 239 to 240 °C

Param item = `O=S1(=O)CCN2C=CC=C(c3ccc(Oc4ccc(F)cc4)cc3)C2=N1` ; retrieve measured melting point. 266 to 267 °C

Param item = `O=S1(=O)CCN2C=CC=C(c3ccc(Oc4ccc(Cl)cc4)cc3)C2=N1` ; retrieve measured melting point. 232 to 234 °C

* * *

Measured melting point of individual entries

Past entries and their recorded results:
1) CC(C)c1ccc(OCC2=CC=CN3CCS(=O)(=O)N=C23)cc1 : 212 to 214 °C
2) O=S1(=O)CCN2C=C(Cl)C=C(c3ccc(Oc4ccccc4)cc3)C2=N1 : 248 to 249 °C
3) O=S1(=O)CCN2CCCC(c3ccc(-c4ccccc4)cc3)C2=N1 (stereo not drawn) [Example 28] : 238 to 239 °C
4) O=S1(=O)CCN2C=C(Cl)C=C(c3ccc(Oc4ccnc(C(F)(F)F)c4)cc3)C2=N1 : 239 to 240 °C
5) O=S1(=O)CCN2C=C(Cl)C=C(c3ccc(Oc4cc(C(F)(F)F)ccn4)cc3)C2=N1 : 238 to 239 °C
6) CC(C)c1ccc(C#CC2=CC=CN3CCS(=O)(=O)N=C23)cc1 : 258 to 262 °C
7) O=S1(=O)CCN2C=CC=C(c3ccc(Oc4ccccc4)nc3)C2=N1 : 244 to 245 °C
8) Cc1ccc(C(F)(F)c2ccc(C3CCCN4CCS(=O)(=O)N=C34)cc2)cc1 (stereo not drawn) : 190 to 191 °C

Below: the item to evaluate.
Param item = CCCOc1ccc(C2CCCN3CCS(=O)(=O)N=C23)cc1 (stereo not drawn) ; retrieve measured melting point. 169 to 170 °C

* * *

target: AMPA receptor (human GluR1 flip/stargazin expressed in CHO-K1 cells) (Homo sapiens); construct: expressed in transfected cells; host or cells: CHO-K1; test: AMPA receptor function enhancing activity using calcium influx as index; format: cell-based; settings: test compound 30 μM with glutamic acid final 3 mM, change in fluorescence in 3 min, 100% = 3 mM glutamic acid + 300 μM cyclothiazide, 0% = 3 mM glutamic acid only
Sequence (P42261 19-906 isoform P42261-2 limits assumed): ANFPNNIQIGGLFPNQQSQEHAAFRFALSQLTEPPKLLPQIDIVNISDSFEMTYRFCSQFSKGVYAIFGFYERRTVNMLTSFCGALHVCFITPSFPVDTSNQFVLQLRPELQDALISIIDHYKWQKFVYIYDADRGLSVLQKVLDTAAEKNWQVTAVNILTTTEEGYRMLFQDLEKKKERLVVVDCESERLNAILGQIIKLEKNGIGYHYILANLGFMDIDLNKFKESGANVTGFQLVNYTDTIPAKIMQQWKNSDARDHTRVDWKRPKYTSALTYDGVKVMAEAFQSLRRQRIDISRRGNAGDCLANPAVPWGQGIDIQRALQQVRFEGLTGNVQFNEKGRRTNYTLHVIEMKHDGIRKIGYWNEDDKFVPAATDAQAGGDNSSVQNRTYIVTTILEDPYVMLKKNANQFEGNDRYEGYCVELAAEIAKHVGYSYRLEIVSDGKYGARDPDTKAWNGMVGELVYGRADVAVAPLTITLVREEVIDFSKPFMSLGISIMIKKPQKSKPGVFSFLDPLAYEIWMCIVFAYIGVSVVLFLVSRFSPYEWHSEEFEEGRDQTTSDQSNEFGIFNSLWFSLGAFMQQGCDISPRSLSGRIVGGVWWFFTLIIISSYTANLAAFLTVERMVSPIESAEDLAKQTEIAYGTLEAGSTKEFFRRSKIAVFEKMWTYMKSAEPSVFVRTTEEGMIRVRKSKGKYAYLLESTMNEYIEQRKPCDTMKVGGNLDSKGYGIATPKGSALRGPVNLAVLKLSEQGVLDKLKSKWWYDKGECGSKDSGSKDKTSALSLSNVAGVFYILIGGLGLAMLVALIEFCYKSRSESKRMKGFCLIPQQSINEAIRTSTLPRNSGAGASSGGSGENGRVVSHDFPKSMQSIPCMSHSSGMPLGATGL
Sequence (Q9Y698 whole entry partner): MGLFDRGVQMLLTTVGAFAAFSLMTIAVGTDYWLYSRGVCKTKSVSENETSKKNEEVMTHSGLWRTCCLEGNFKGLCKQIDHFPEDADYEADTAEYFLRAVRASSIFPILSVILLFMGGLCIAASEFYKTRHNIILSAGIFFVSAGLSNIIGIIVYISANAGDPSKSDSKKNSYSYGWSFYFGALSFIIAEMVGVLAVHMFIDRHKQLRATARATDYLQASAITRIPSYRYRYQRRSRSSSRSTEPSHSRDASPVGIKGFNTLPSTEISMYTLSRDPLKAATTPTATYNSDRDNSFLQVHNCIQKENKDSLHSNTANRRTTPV
Where a name gives a salt, the structure may show the parent alone.
Decision: activity (%) compared against 80%; not below it gives yes (1), below it gives no (0).

Observe how each entry below is paired with its result.
1) CC(C)(c1ccccc1)c1ccc(C2=CC=CN3CCS(=O)(=O)N=C23)cc1 : yes (1)
2) O=S1(=O)CCN2CCC[C@@H](c3ccc(Oc4ccccc4)cc3)C2=N1 : no (0)
3) Cc1ccc(Oc2ccc(C3=CC=CN4CCS(=O)(=O)N=C34)cc2)cc1 : no (0)

Please tell me: is the compound `Cc1cc(C(F)(F)F)nn1-c1ccc(C2=CC=CN3CCS(=O)(=O)N=C23)cc1` at or over 80% in terms of activity (%)? yes (1)

Please tell me: is the compound `CC(C)c1ccc(COC2=CC=CN3CCS(=O)(=O)N=C23)cc1` at or over 80% in terms of activity (%)? no (0)

Please tell me: is the compound [2H]C1(c2ccc(-c3ccccc3)c(F)c2)NCCN2CCS(=O)(=O)N=C21 (centres unmarked) [Example 348, Hydrochloride] at or over 80% in terms of activity (%)? no (0)

Please tell me: is the compound O=S1(=O)CCN2CCCC(c3ccc(-c4ccccc4)c(F)c3)C2=N1 (centres unmarked) [Example 97] at or over 80% in terms of activity (%)? yes (1)

Please tell me: is the compound Cc1cc(Oc2ccc(C3CCCN4CCS(=O)(=O)N=C34)cc2)ccc1F (centres unmarked) [Example 113] at or over 80% in terms of activity (%)? yes (1)
